assayedSystem: T1, Biotin-huCGRPaSA (human, not fully specified; biotin (position not given))
T1 construct: exact construct ('aSA') not explained; also called Biotin CGRPaSA; full-length (1-37) CGRP
T1 peptide: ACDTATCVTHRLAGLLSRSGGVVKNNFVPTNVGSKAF
experimentalProtocol: ELISA, supernatant; relative to chimeric C245
Listing of entries alongside the reported Relative binding activity, %.
Form entry: value (%) — number only.

binder: hu118 (antibody, V domains shown, 2B8 HC1-2/1A2 LC2-1) VH: QVQLVQSGAEVKKPGASVKVSCKASGYTFTDYNMHWVRQAPGQGLEWMGNIYPYNGGTVYNQKFNNRVTLTVDTSSSTAYMELRSLRSDDTAVYYCAREGLGGYWGQGTLVTVSS VL: DIVLTQSPASLAVSPGQRATITCKASQNIDYDGYAYLNWYQQKPGQPPKVLIYSVFNLESGVPARFSGSGSGTDFTLTINPVEANDTANYYCQQSNEFPYTFGQGTKLEIK
Relative binding activity, %, %: 60
--
binder: hu39 (antibody, V domains shown, 1F5 HC-1/3H10 LC2-2) VH: QVQLVQSGAEVKKPGASVKVSCKASGYTFIDFNMHWVRQAPGQRLEWMGYIYPYNGDVVYNQNFTNRVTLTVDTSSSTAYMELSSLRSEDTAVYYCAREGLGGYWGQGTLVTVSS VL: DIQLTQSPSSLSASVGDRVTITCKASQNIDYGGYSYMNWYQQKPGKAPKVLIYSVFNLESGVPSRFSGSGSGTDFTLTISSLQPEDFATYYCQQSNEAPYTFGQGTKLEIK
Relative binding activity, %, %: 51
--
binder: hu187 (antibody, V domains shown, 3E5 HC-4/1F5 LC1-1) VH: QVQLVQSGAEVKKPGASVKVSCKTSGYTFTDYNMHWVRQAPGQRLEWMGYISPYNAGTAYNQKFKFRVTLTVDTSSSTAYMELSSLRSEDTAVYYCAREGLGGYWGQGTLVTVSS VL: EIVLTQSPATLSLSPGERATLSCKASQNIDFDGYAYMNWYQQKPGQAPRVLIYSVFNLESGIPARFSGSGSGTDFTLTISSLEPEDFAVYYCQQSHEVPYTFGQGTKLEIK
Relative binding activity, %, %: 67

Task: Requested field: Relative binding activity, %. Item: hu87 (antibody, V domains shown, 1F5 HC-5/2B8 LC2-1) VH: QVQLVQSGAEVKKPGASVKVSCKASGYTFIDFNMHWVRQAPGQRLEWMGYIYPYNADVVYNQDFTNRVTLTVDTSSSTAYMELSSLRSEDTAVYYCAREGLGGYWGQGTLVTVSS VL: DIVLTQSPDSLAVSLGERATINCQASQNIDGNTYMNWYQQKPGQPPKVLIYSIFNLESGVPDRFSGSGSGTDFTLTISSLQAEDVAVYYCQQSNDYPYTFGQGTKLEIK
Output: 138

Task: And the next one, hu229 (antibody, V domains shown, 3C1 HC-2/3C1 LC-4) VH: QVQLVQSGAEVKKPGASVKVSCKASGYTFTGYTMNWVRQAPGQRLEWMGLINPYIGNTHYNQKFKDRVTFTVDRSSSTAYMELSSLRSEDTAVYYCARELDSGFDYWGQGTLVTVSS VL: DVVMTQSPDSLAVSLGERATINCRSSQNIVHSNADTYLEWYQQKPGQPPKLLIYKVSNRFSGVPDRFSGSGSGTDFTLTISSLQAEDVAVYYCYQGSHVPWTFGQGTKLEIK ?
Output: 48

Task: And the next one, hu130 (antibody, V domains shown, 2B8 HC1-2/3H10 LC2-2) VH: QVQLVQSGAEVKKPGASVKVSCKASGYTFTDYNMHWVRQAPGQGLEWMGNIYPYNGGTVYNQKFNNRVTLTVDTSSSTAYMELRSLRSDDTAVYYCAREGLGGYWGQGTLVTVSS VL: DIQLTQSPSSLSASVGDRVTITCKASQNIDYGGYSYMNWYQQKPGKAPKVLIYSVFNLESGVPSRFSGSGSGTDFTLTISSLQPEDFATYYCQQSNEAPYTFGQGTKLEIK ?
Output: 53

Task: And the next one, hu69 (antibody, V domains shown, 1F5 HC-4/1A2 LC2-4) VH: QVQLVQSGSELKKPGASVKVSCKASGYTFTDFNMHWVRQAPGQGLEWMGYIYPYNGDVVYNQNFTNRFVLSVDSSSSTAYLQISSLKAEDTAVYYCAREGLGGYWGQGTLVTVSS VL: DIQLTQSPSFLSASVGDRVTITCKASQNIDYDGYAYLNWYQQKPGKAPKVLIYSVFNLESGVPSRFSGSGSGTEFTLTISSLQPEDFATYYCQQSNEFPYTFGQGTKLEIK ?
Output: 102

Task: And the next one, hu128 (antibody, V domains shown, 2B8 HC1-2/3E5 LC-1) VH: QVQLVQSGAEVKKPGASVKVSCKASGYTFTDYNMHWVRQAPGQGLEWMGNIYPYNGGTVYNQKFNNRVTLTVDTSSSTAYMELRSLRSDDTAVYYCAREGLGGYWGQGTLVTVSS VL: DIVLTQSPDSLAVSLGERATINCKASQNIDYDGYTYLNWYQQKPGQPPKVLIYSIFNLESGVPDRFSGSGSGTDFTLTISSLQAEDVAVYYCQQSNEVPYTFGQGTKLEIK ?
Output: 117

Task: And the next one, hu85 (antibody, V domains shown, 1F5 HC-5/1F5 LC1-3) VH: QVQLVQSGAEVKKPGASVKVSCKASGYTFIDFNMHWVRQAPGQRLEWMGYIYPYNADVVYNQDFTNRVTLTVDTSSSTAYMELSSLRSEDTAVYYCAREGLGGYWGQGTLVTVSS VL: DIVLTQSPASLAVSPGQRATITCKASQNIDFDGYAYMNWYQQKPGQPPKVLIYSVFNLESGVPARFSGSGSGTDFTLTINPVEADDTANYYCQQSHEVPYTFGQGTKLEIK ?
Output: 76

Task: And the next one, hu31 (antibody, V domains shown, 1F5 HC-1/1F5 LC1-1) VH: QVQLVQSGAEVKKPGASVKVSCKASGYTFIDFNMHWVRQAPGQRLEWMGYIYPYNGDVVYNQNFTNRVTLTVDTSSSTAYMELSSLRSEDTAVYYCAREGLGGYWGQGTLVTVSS VL: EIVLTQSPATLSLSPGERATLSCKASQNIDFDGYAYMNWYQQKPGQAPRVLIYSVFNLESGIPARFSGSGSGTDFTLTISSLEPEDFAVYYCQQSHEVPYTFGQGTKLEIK ?
Output: 79
